Experiment: NCI Yeast Anticancer Drug Screen. Data for the rad50 strain (AID 155);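 further: 0% = growth of vehicle-only cultures of the same strain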
Conditions: S. cerevisiae rad50 strain growth inhibition, hits give high values; at 50.0 µM unless noted
About 79,000 compounds went through this panel and 15% of them were active in at least one assay; those are over-represented in the sample as a whole.
measured endpoint: growth inhibition (%)
// note: answer is a bare numeric in %

| compound | measured endpoint | recorded value |
| --- | --- | --- |
| Cc1cc(OC(=O)c2c(-c3c(Cl)cccc3Cl)noc2C)n(-c2ccc(NC(=O)c3c(-c4c(Cl)cccc4Cl)noc3C)cc2)n1 | growth inhibition | 36.8 |
| O=C1OCCOCCOCCOCCOCCOC(=O)c2cccc1n2 | growth inhibition | 18.1 |
| COc1ccc(-c2sc(/N=C/c3ccc(N(C)CCC#N)cc3)c(C#N)c2C)cc1OC | growth inhibition | 4 |

Input line: I am curious: what growth inhibition value has been reported for COc1ccc(/C=C2\N=C(N3CCCC(CO)C3)NC2=O)cc1 (stereo not drawn) ?
Output line: -35.1

Input line: Name the reported growth inhibition value associated with the compound c1c[nH]c(CN2CCOCC2)n1
Output line: -32

Input line: # lookup: growth inhibition of O=C(Nc1ccccn1)c1ccccc1Cl
Output line: 1.1

Input line: Returns the measured growth inhibition for the input compound. Input: CC1=C(C(=O)CC(=O)C(=O)Nc2ccc(Cl)cc2C)Sc2ccccc2N1
Output line: -4.7

Input line: Can you share its growth inhibition? I mean this compound: O=C(O)c1ccccc1Br
Output line: 1.1

Input line: Reported growth inhibition for [N-]=[N+]=CC(=O)CCC(=O)N(c1ccccc1)c1ccccc1 : what is it?
Output line: -30

----------
Assay: NCI Yeast Anticancer Drug Screen. Data for the rad50 strain (AID 155);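 further: 0% = growth of vehicle-only cultures of the same strain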
Conditions: S. cerevisiae rad50 strain growth inhibition, hits give high values; at 50.0 µM unless noted
Compounds without any hit were thinned out: in the full panel of roughly 79,000, 15% have a hit.
Catalogue of molecules with associated growth inhibition
Form entry: value (%) — number only.

These recorded examples may help you get a feel for the data.
| molecule | growth inhibition, % |
| --- | --- |
| CC(=O)OC(C(N)=O)c1ccccc1 (centres undefined) | -0.7 |
| O=C(F)c1cccc2ccccc12 | -25.9 |
| C=CCCCCCCCCCCCCCCCC | -24 |

Input line: Need growth inhibition, item CSc1nc(C)cc(Nc2ccc(O)c(CN3CCCCC3)c2)n1
Output line: 19.4

Input line: Please look up its growth inhibition: CCOC(=O)C(CC(C)C)NC(=O)c1c2nc3c(C(=O)NC(CC(C)C)C(=O)OCC)cc(NC(C)=O)c(C)c3oc-2c(C)c(=O)c1N (centres undefined)
Output line: 8.4

----------
Experiment: NCI Yeast Anticancer Drug Screen. Data for the mec2-1 strain (AID 157)
Details: S. cerevisiae mec2-1 strain, hits give high values; at 50.0 µM unless noted
About 79,000 compounds went through this panel and 15% of them were active in at least one assay; those are over-represented in the sample as a whole.
Listing of entries alongside the reported growth inhibition.
Provide only the numeric value, understood in %.

Some solved cases for reference:
| compound | display unit | growth inhibition |
| --- | --- | --- |
| NC(Cc1ccc2nc3c4ccccc4c(=O)cc-3oc2c1)C(=O)O (centres undefined) | % | -40.9 |
| O=C1c2ccccc2C(=O)c2c3c(cc(NCCNCCO)c21)N(CCO)CCN3 | % | 18.4 |
| CCCCCC=C(C(=O)OCC)C(=O)OCC | % | -1.7 |
| CCC(C)(C)c1ccc(C(=O)OC)o1 | % | 16.2 |
| Cc1cc(Cl)ccc1OCC(=O)NCCO | % | 19.9 |

Input line: Query: growth inhibition; subject: N#CC1(c2ccccc2)CCC1
Output line: -24.9

Input line: Would you kindly share the measured growth inhibition for N#C/C(=C/c1ccccc1)c1ccccc1 ?
Output line: 12.6

Input line: Entry Cc1ccc2c(N=Nc3ccc(C(=N)N)cc3)ccc(O)c2n1 : reported growth inhibition = ?
Output line: 99.4

Input line: # lookup: growth inhibition of COC(=O)C(CCSc1ccccc1)C(=O)OC
Output line: -4.45

Input line: Suppose we examine the compound CCOC(=O)c1ccc2c(c1)C(=O)c1cc([N+](=O)[O-])ccc1-2 ; what growth inhibition value has been reported?
Output line: 13.2

Input line: Returns the measured growth inhibition for the input compound. Input: Cc1cc[n+](CCC(N)=O)cc1
Output line: -30.8

Input line: Endpoint output: growth inhibition of c1ccc(OC2=NC3=S(S2)SC(Oc2ccccc2)=N3)cc1 . Value?
Output line: -4.15

----------
Entries and their measured growth inhibition follow.
Assay: NCI Yeast Anticancer Drug Screen. Data for the rad50 strain (AID 155);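 further: 0% = growth of vehicle-only cultures of the same strain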
Conditions: S. cerevisiae rad50 strain growth inhibition, hits give high values; at 50.0 µM unless noted
Compounds without any hit were thinned out: in the full panel of roughly 79,000, 15% have a hit.
A number alone suffices; assume %.

Some compounds with known growth inhibition results, for comparison:
| compound | growth inhibition, % |
| --- | --- |
| CCOC(=O)C(=CN1CCNC1=S)C(=O)OCC | -30.6 |
| O=S(=O)(/C(=C\c1ccccc1)c1ccccc1)c1ccccc1 | -4.8 |

Please find the next compound below.
Input line: Please look up its growth inhibition: O=[N+]([O-])c1ccc[nH]c1=S
Output line: -5.15

----------
Reported growth inhibition is given for each of the following molecules.
Assay: NCI Yeast Anticancer Drug Screen. Data for the mlh1 rad18 strain (AID 175)
Conditions: S. cerevisiae mlh1 rad18 strain growth inhibition, hits give high values; at 50.0 µM unless noted
About 79,000 compounds went through this panel and 15% of them were active in at least one assay; those are over-represented in the sample as a whole.
The reply should be a number in %, with the unit left off.

Before answering, review these 3 worked examples.
| molecule | growth inhibition [%] |
| --- | --- |
| O=C(Nc1ccccc1)Nc1ccc([N+](=O)[O-])cc1[N+](=O)[O-] | 20.6 |
| CC(=O)Nc1ccc(S(=O)(=O)NC(C)=O)cc1 | 12.6 |
| COc1cc(OC)cc(C(=O)CC(=O)c2cc(OC)cc(OC)c2)c1 | -26.1 |

Input line: Form field: reported growth inhibition of CC1(C)OC2OC3C(Br)C(=O)OC3C2O1 (stereo unspecified)
Output line: 26.2

Input line: growth inhibition lookup needed for N#C/C(=C\c1ccc(Cl)cc1Cl)C(=O)N/N=C/c1ccc(Cl)cc1Cl , thanks.
Output line: 23.6

Input line: growth inhibition lookup needed for CN(O)C(=O)CCC(NC(=O)CCC(N)C(=O)O)C(=O)NCC(=O)O (stereo unspecified) , thanks.
Output line: -51.8

Input line: Please look up its growth inhibition: O=C1c2sc(-c3ccc(Cl)cc3)cc2-n2cccc21
Output line: 26.2

Input line: So what does the record say about growth inhibition for c1ccc2nc(CCC3CCCCN3)ccc2c1 (stereo unspecified) ?
Output line: 17.1

Input line: Could you tell me which growth inhibition is on file for CCCOC(=O)c1ccc([N+](=O)[O-])cc1 ?
Output line: -23.1

----------
Test: NCI Yeast Anticancer Drug Screen. Data for the mlh1 rad18 strain (AID 175)
Settings: S. cerevisiae mlh1 rad18 strain growth inhibition, hits give high values; at 50.0 µM unless noted
The panel holds about 79,000 compounds, 15% with a hit somewhere; the sample as a whole holds those more often.
measured endpoint: growth inhibition (%)
// note: answer is a bare numeric in %

| molecule | recorded value |
| --- | --- |
| CCOC(=O)NC(=O)c1cn(CCSCCOC(=O)NCCCCCCNC(=O)OCCSCCn2cc(C(=O)NC(=O)OCC)c(=O)n(C)c2=O)c(=O)n(C)c1=O | -18.4 |
| CC(C)N=C(N)N=C(N)N | -3.2 |

Input line: For the molecule COc1ccc(-c2nc(N)c3ncn(C4OC(CO)C(O)C4O)c3n2)cc1 (centres undefined) , what growth inhibition is on record?
Output line: 15.4

Input line: Query: growth inhibition; subject: CCc1cccc(CC)c1NC(=O)OCCN(CC)CC
Output line: 4.15

Input line: Record request: growth inhibition value, item Cc1cnc2ccccc2n1 (tested in a mixture with another compound)
Output line: 24.8

Input line: Tell me the measured growth inhibition of O=C1OC(c2ccccc2)=C2CCC3CCCCN1C23 (centres undefined) , please.
Output line: 9.25

Input line: Requested read-out: growth inhibition. Entry: N#Cc1ccccc1NC(=O)C(=O)c1c(O)c2ccccc2oc1=O
Output line: -25

Input line: // growth inhibition lookup, key: CC(C)(CO)CNC(=O)C(C)(C)CO
Output line: -4.4

Input line: What growth inhibition value was documented for this molecule, C#CCOc1ccc(C)cc1 ?
Output line: -10.1

----------
Parameter growth inhibition: see the listing below.
Assay: NCI Yeast Anticancer Drug Screen. Data for the mec2-1 strain (AID 157)
Conditions: S. cerevisiae mec2-1 strain, hits give high values; at 50.0 µM unless noted
This is part of a sample that, as a whole, favours compounds with a hit. Of some 79,000 tested, about 15% had one in any assay.
API: value field is a number in %; no unit string.

| molecule | display unit | recorded value |
| --- | --- | --- |
| OCC(O)C1OC(O)C(O)C(O)C1O (centres undefined) | % | -7.75 |
| COC(=O)[C@]1(c2ccc(N(C)C)cc2OC)C[C@@H]2CCCN(CCc3c1[nH]c1ccccc31)C2 | % | -4.35 |
| O=C(F)c1cccc2ccccc12 | % | -14.7 |
| Cc1cc(C)c(C(=O)c2cccc(C)c2C(=O)O)c(C)c1 | % | -20.8 |

From here, focus on the item given below.
Input line: Any idea what its growth inhibition is? The molecule is NCC(=O)c1ccc2cc(Br)c3ccccc3c2c1
Output line: 0.45
